molecular target: HIV Env of isolate ZM233M.PB6 (clade C) (HIV); test: cell-based or functional assay
Experimental Readout: IC50 (µg/ml) with constrains

ePGDM5 (antibody, V domains shown) VH: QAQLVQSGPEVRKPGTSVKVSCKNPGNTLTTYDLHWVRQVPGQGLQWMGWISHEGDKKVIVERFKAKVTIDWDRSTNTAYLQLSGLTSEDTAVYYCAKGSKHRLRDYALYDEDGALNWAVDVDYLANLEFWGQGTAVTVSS VL: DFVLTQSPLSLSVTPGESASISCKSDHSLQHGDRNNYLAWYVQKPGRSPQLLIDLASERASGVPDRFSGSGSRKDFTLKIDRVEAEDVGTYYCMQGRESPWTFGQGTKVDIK    0.002 µg/mL
ePGDM9 (antibody, V domains shown) VH: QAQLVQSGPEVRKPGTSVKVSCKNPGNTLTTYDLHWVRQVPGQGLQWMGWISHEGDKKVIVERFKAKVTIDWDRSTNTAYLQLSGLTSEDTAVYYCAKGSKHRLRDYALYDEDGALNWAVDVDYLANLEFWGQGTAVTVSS VL: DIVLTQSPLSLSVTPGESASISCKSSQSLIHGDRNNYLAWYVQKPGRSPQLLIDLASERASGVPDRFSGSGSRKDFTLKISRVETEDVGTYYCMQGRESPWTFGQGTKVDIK    0.002 µg/mL
ePGDM13 (antibody, V domains shown) VH: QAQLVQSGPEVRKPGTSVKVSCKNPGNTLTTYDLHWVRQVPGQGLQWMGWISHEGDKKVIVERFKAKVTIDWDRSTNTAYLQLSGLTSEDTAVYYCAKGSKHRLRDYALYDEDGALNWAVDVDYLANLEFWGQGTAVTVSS VL: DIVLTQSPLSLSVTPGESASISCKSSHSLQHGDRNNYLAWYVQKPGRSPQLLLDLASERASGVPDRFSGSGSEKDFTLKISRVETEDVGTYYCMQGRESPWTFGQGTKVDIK    0.001 µg/mL
PGDM1400 (antibody, V domains shown) VH: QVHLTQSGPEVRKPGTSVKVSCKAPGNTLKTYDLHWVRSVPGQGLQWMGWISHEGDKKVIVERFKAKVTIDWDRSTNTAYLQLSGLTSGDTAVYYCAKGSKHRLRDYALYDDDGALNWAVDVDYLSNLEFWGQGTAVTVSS VL: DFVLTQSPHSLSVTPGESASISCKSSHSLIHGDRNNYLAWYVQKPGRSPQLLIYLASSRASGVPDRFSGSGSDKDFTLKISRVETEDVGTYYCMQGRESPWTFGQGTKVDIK    0.002 µg/mL
